Measured IC50, listed per entry.
# Target System: FGFR-1 (Homo sapiens)
# Construct: GST; made in house
# Experiment Description: FGFR-1 TR-FRET biochemical assay
# Cond: 0.6 uM ATP, 5 nM FGFR1-GST; bounds given in nM
Recorded Metric: IC50

INSERT INTO assay_data (compound, target_system, recorded_metric, recorded_result) VALUES
  ('CC(=O)N1CCC(c2cc(-c3ccc(NC(=O)Nc4cc(C(F)(F)F)ccn4)c(F)c3)c3c(N)ncnn23)C1 (stereo not drawn)', 'FGFR-1 (Homo sapiens)', 'IC50', '< 10 nM'),
  ('Nc1ncnn2c(CN3CCOCC3)cc(-c3ccc(NC(=O)Nc4cc(C(F)(F)F)ccn4)nc3)c12', 'FGFR-1 (Homo sapiens)', 'IC50', '< 10 nM'),
  ('Nc1ncnn2c(CN3CCNCC3)cc(-c3ccc(NC(=O)Nc4cc(C(F)(F)F)ccc4F)cc3)c12', 'FGFR-1 (Homo sapiens)', 'IC50', '< 10 nM'),
  ('Nc1ncnn2c(C(O)C(O)CO)cc(-c3ccc(NC(=O)Nc4cc(C(F)(F)F)ccc4F)c(F)c3)c12 (stereo not drawn)', 'FGFR-1 (Homo sapiens)', 'IC50', '10 to 100 nM'),
  ('Nc1ncnn2c(CN3CCOCC3)cc(-c3ccc(NC(=O)Nc4cc(C(F)(F)F)ccc4F)c(Cl)c3)c12', 'FGFR-1 (Homo sapiens)', 'IC50', '< 10 nM'),
  ('CC(C)S(=O)(=O)N1CCN(Cc2cc(-c3ccc(NC(=O)Nc4cc(C(F)(F)F)ccc4F)cc3)c3c(N)ncnn23)CC1', 'FGFR-1 (Homo sapiens)', 'IC50', '10 to 100 nM'),
  ('Nc1ncnn2c(CCCN3CCSCC3)cc(-c3ccc(NC(=O)Nc4cc(C(F)(F)F)ccc4F)c(F)c3)c12', 'FGFR-1 (Homo sapiens)', 'IC50', '10 to 100 nM'),
  ('Nc1ncnn2c(C(=O)CO)cc(-c3ccc(NC(=O)Nc4cc(C(F)(F)F)ccc4F)c(F)c3)c12', 'FGFR-1 (Homo sapiens)', 'IC50', '10 to 100 nM'),
  ('Nc1ncnn2c(CCCN3CCOCC3)cc(-c3cc(F)c(NC(=O)Nc4cc(C(F)(F)F)ccc4F)cc3F)c12', 'FGFR-1 (Homo sapiens)', 'IC50', '< 10 nM'),
  ('CC(O)c1cc(-c2ccc(NC(=O)Nc3cc(C(F)(F)F)ccc3F)c(F)c2)c2c(N)ncnn12 (stereo not drawn)', 'FGFR-1 (Homo sapiens)', 'IC50', '10 to 100 nM'),
  ('COc1cc(-c2cc(CN3CCOCC3)n3ncnc(N)c23)ccc1NC(=O)Nc1ccc(F)c(C(F)(F)F)c1', 'FGFR-1 (Homo sapiens)', 'IC50', '10 to 100 nM'),
  ('Nc1ncnn2c(C3CCNCC3)cc(-c3ccc(NC(=O)Nc4cc(C(F)(F)F)ccc4F)cc3)c12', 'FGFR-1 (Homo sapiens)', 'IC50', '< 10 nM'),
  ('Nc1ncnn2c(CN3CCNC(=O)C3)cc(-c3ccc(NC(=O)Nc4cc(C(F)(F)F)ccc4F)c(F)c3)c12', 'FGFR-1 (Homo sapiens)', 'IC50', '< 10 nM'),
  ('Cc1cc(NC(=O)Nc2cc(C(F)(F)F)ccc2F)ccc1-c1cc(CN2CCOCC2)n2ncnc(N)c12', 'FGFR-1 (Homo sapiens)', 'IC50', '< 10 nM'),
  ('Nc1ncnn2c(C3CCNC3)cc(-c3ccc(NC(=O)Nc4cc(C(F)(F)F)ccc4F)c(F)c3)c12 (stereo not drawn)', 'FGFR-1 (Homo sapiens)', 'IC50', '10 to 100 nM');

---

Property: IC50; scope: individual compounds
# Target System: FGFR-1 (Homo sapiens)
# Construct: GST; made in house
# Experiment Description: FGFR-1 TR-FRET biochemical assay
# Cond: 0.6 uM ATP, 5 nM FGFR1-GST; bounds given in nM
Recorded Metric: IC50

INSERT INTO measurements (compound, recorded_result) VALUES
  ('CC(C)(O)c1cc(-c2ccc(NC(=O)Nc3cc(C(F)(F)F)ccc3F)cc2)c2c(N)ncnn12', '10 to 100 nM'),
  ('Nc1ncnn2c(C3CCNC3)cc(-c3ccc(NC(=O)Nc4cc(C(F)(F)F)ccc4F)cc3)c12 (stereo not shown)', '< 10 nM'),
  ('COc1cc(NC(=O)Nc2cc(C(F)(F)F)ccc2F)ccc1-c1cc(CN2CCOCC2)n2ncnc(N)c12', '10 to 100 nM'),
  ('CC(C)(C)OC(=O)N1CCC(c2cc(-c3ccc(NC(=O)Nc4cc(C(F)(F)F)ccc4F)c(F)c3)c3c(N)ncnn23)C1 (stereo not shown)', '> 100 nM'),
  ('Nc1ncnn2c(CN3CCOCC3)cc(-c3ccc(NC(=O)Nc4ccc(F)cn4)cc3)c12', '> 100 nM'),
  ('Nc1ncnn2c(CN3CCOCC3)cc(-c3ccc(NC(=O)Nc4ccc(Cl)c(C(F)(F)F)c4)nc3)c12', '< 10 nM'),
  ('Cc1cc(-c2cc(CCCN3CCOCC3)n3ncnc(N)c23)ccc1NC(=O)Nc1cc(C(F)(F)F)ccc1F', '< 10 nM'),
  ('Nc1ncnn2c(CN3CCOCC3)cc(-c3ccc(NC(=O)Nc4cc(C(F)(F)F)ccn4)cc3)c12', '< 10 nM'),
  ('Nc1ncnn2c(CCN3CCCOCC3)cc(-c3ccc(NC(=O)Nc4cc(C(F)(F)F)ccc4F)c(F)c3)c12', '< 10 nM'),
  ('CCOCCN1CCC(c2cc(-c3ccc(NC(=O)Nc4cc(C(F)(F)F)ccc4F)c(Cl)c3)c3c(N)ncnn23)CC1', '10 to 100 nM'),
  ('CC(=O)N1CCC(c2cc(-c3ccc(NC(=O)Nc4cc(C(F)(F)F)ccc4F)c(F)c3)c3c(N)ncnn23)C1 (stereo not shown)', '< 10 nM'),
  ('Nc1ncnn2c(C3CCN(C(=O)CO)CC3)cc(-c3ccc(NC(=O)Nc4cc(C(F)(F)F)ccc4F)c(Cl)c3)c12', '< 10 nM'),
  ('COCCN1CCC(c2cc(-c3ccc(NC(=O)Nc4cc(C(F)(F)F)ccc4F)c(Cl)c3)c3c(N)ncnn23)CC1', '< 10 nM');

---

Measured IC50 of individual entries
# Target System: FGFR-1 (Homo sapiens)
# Construct: GST; made in house
# Experiment Description: FGFR-1 TR-FRET biochemical assay
# Cond: 0.6 uM ATP, 5 nM FGFR1-GST; bounds given in nM
# Procedure: FGFR-1TR-FRET Biochemical Assay The FGFR-1 Assay was performed on half well 96-well opaque plates (Costar 3915) in a LANCE format. LANCE is a homogenous time resolved fluormetry based application available through Perkin Elmer. […] Time-resolved fluorescence was then read on a Perkin Elmer VictorV Multilabel counter. The reading protocol uses an excitation wavelength at 340 nm and emission reads at both 615 and 665 nm. […]
Recorded Metric: IC50

INSERT INTO results (substance_smiles, target_system, recorded_metric, recorded_result) VALUES
  ('Nc1ncnn2c(CN3CCOCC3)cc(-c3ccc(NC(=O)Nc4cc(C(F)(F)F)ccn4)c(F)c3)c12', 'FGFR-1 (Homo sapiens)', 'IC50', '< 10 nM'),
  ('CNC(=O)CN1CCC(c2cc(-c3ccc(NC(=O)Nc4cc(C(F)(F)F)ccc4F)c(F)c3)c3c(N)ncnn23)CC1', 'FGFR-1 (Homo sapiens)', 'IC50', '< 10 nM'),
  ('CC(=O)c1cccc(NC(=O)Nc2ccc(-c3cc(CN4CCOCC4)n4ncnc(N)c34)cc2)c1', 'FGFR-1 (Homo sapiens)', 'IC50', '10 to 100 nM'),
  ('CC(C)(C)c1ccnc(NC(=O)Nc2ccc(-c3cc(CCN4CCOCC4)n4ncnc(N)c34)cc2F)c1', 'FGFR-1 (Homo sapiens)', 'IC50', '< 10 nM');

---

# Target System: FGFR-1 (Homo sapiens, UniProt P11362)
# Construct: GST; made in house
# Sequence (P11362 22-822): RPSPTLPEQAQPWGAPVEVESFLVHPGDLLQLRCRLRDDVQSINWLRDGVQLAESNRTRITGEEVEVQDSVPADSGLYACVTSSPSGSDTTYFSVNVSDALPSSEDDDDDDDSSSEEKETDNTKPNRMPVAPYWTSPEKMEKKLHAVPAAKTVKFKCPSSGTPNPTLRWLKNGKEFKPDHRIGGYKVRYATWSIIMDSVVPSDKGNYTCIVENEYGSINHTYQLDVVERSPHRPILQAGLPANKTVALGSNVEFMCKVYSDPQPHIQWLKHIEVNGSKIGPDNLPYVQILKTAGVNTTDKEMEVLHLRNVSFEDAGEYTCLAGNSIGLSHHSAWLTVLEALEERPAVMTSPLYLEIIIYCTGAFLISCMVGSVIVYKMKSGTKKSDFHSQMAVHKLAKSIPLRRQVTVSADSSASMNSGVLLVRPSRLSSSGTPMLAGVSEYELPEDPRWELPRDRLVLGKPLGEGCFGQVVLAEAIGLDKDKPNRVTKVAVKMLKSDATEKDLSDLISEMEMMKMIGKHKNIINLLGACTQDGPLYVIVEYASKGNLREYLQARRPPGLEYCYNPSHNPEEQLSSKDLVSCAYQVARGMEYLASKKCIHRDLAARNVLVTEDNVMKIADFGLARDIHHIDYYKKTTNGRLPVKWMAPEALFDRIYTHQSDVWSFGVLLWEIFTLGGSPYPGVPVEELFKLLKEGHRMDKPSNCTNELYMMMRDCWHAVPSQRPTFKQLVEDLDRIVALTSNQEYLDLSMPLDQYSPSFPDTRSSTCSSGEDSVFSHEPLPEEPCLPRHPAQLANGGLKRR
# Experiment Description: FGFR-1 TR-FRET biochemical assay
# Cond: 0.6 uM ATP, 5 nM FGFR1-GST; bounds given in nM
Recorded Metric: IC50

INSERT INTO results (compound, recorded_metric, recorded_result) VALUES
  ('Cc1cc(-c2cc(CN3CCOCC3)n3ncnc(N)c23)ccc1NC(=O)Nc1cc(C(F)(F)F)ccn1', 'IC50', '< 10 nM'),
  ('Nc1ncnn2c(CN3CCCOCC3)cc(-c3cc(F)c(NC(=O)Nc4cc(C(F)(F)F)ccc4F)cc3F)c12', 'IC50', '< 10 nM'),
  ('CN(C)C(=O)N1CCC(c2cc(-c3ccc(NC(=O)Nc4cc(C(F)(F)F)ccc4F)c(F)c3)c3c(N)ncnn23)C1 (stereo not shown)', 'IC50', '< 10 nM'),
  ('Nc1ncnn2c(CCCN3CCOCC3)cc(-c3ccc(NC(=O)Nc4cc(C(F)(F)F)ccc4Cl)c(F)c3)c12', 'IC50', '10 to 100 nM');
